- target-desc: T1, recombinant human BAFF-Fc (Sino Biological) (human, UniProt Q9Y275 134-285)
- T1 construct: Bought reagent; also called hBAFF; not shown: Fc moiety detected by anti-human Fc
- T1 sequence (Q9Y275 134-285): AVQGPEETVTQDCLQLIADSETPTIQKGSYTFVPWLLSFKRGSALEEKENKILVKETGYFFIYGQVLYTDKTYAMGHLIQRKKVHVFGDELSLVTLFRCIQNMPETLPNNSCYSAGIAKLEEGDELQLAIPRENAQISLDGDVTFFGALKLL
- protocol: ELISA, periplasmic extract on coated BAFF-Fc (1 µg/mL), anti-FLAG-HRP

binder	binding result
ID2-101C03 (VNAR, Nurse shark VNAR single domain, monomer in periplasmic extract) AQAAARVDQTPRSVTKETGESLTINCVLRDSICALSSTHWYRKKSGSTNEESISLGGRYVETVNSGSKSFSLKINDLTVEDSGTYRCKVTRYVVFSGSTCRMRRADVYGGGTVVTMNAASGAHHHHHHGADYKDDDDK	binds
ID2-101A01 (VNAR, Nurse shark VNAR single domain, monomer in periplasmic extract) VNAR: AARVDQTPQTITKETGESLTINCVLRDSNCALSNLYWYRKKSGSTNEESISLGGRYVETVNSGSKSFSLRINDLTVEDSGTYRCKVRRARVIGGEYCRVQWQDVYGGGTAVTVNA	binds
ID2-101B03 (VNAR, Nurse shark VNAR single domain, monomer in periplasmic extract) VNAR: AARVDQTPRSVTKETGESLTINCVLRDNNCALSTTYWYRKKSGSTNEENISKGGRYVETVNSGSKSFSLRINDLTVEDSGTYRCKVKPDLLFCSSSGLGLIQDVYGGGTAVTVNA	binds
ID2-101C02 (VNAR, Nurse shark VNAR single domain, monomer in periplasmic extract) VNAR: AARVDQTPQTITKETGESLTINCVLRDNNCALSTTYWYRKKSGSTNEENISKGGRYVETVNSGSKSFSLKINDLTVKDSGTYRCKVTRDPLFCSYRASKRHDVYGGGTVVTVNA	binds
